measuredOn: EGFR (Homo sapiens, UniProt P00533)
Sequence (P00533 25-1210): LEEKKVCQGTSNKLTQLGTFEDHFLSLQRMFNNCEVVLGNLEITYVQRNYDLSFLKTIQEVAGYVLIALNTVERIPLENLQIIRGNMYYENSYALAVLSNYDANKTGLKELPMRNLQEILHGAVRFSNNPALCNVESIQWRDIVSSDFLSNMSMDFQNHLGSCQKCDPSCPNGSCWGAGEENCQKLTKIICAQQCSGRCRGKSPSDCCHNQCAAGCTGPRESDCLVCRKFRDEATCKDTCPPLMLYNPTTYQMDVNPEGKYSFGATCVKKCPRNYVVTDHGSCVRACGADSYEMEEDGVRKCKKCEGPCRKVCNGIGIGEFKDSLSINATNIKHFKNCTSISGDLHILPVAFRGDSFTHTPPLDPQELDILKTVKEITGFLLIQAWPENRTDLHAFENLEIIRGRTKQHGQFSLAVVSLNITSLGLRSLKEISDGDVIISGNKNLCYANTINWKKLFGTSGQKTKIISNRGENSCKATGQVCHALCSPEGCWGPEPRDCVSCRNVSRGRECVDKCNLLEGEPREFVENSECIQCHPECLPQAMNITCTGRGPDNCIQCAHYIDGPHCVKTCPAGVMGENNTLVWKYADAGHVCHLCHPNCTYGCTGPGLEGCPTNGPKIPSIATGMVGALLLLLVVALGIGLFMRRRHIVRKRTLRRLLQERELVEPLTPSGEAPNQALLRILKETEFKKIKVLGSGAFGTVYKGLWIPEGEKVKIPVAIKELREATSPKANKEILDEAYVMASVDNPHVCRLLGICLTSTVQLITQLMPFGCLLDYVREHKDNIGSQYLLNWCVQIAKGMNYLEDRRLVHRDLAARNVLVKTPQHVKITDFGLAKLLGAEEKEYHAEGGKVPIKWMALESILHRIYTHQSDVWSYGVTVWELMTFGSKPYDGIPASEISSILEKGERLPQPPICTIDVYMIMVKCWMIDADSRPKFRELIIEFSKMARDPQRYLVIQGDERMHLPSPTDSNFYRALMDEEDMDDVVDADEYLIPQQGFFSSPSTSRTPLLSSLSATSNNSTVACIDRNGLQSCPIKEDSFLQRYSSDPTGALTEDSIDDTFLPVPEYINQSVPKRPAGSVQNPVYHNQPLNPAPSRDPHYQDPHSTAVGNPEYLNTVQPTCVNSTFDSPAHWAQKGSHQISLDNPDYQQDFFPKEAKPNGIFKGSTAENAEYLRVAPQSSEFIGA
assayInfo: ADP-Glo kinase assay, EGFR
Assay type: biochemical
Parameters: purchased BPS Bioscience (assay run externally by the vendor)
conditions: 10 µM ATP, triplicate; read-out: EGFR IC50 ± SD
pIC50: −log10 of the molar value.
measureName: pIC50

compound: Clc1ccc(Nc2ncnc3[nH]ccc23)cc1Br [Compound 7]
pIC50: 8.44

compound: c1ccc(Nc2ncnc3[nH]ccc23)cc1 [Compound 1]
pIC50: 6.59

compound: Clc1cccc(Nc2ncnc3[nH]ccc23)c1 [Compound 11]
pIC50: 8.18

1: COc1ccc(Nc2ncnc3[nH]ccc23)cc1 [Compound 6]
2: c1ccc(Cc2ccc(Nc3ncnc4[nH]ccc34)cc2)cc1 [Compound 18]
3: Cc1ccc(Nc2ncnc3[nH]ccc23)cc1 [Compound 9]
In: Place the items in sequence of falling pIC50. Return the labels ranked in the requested order, please.
Out: 2, 3, 1

1: c1ccc(Oc2ccc(Nc3ncnc4[nH]ccc34)cc2)cc1 [Compound 17]
2: Nc1nc(Nc2cccc(Br)c2)c2cc[nH]c2n1 [Compound 8]
3: Fc1cc(Nc2ncnc3[nH]ccc23)ccc1Cl [Compound 3]
4: Cc1cccc(Nc2ncnc3[nH]ccc23)c1 [Compound 12]
In: Please produce an ascending ranking of these compounds based on pIC50. Return the labels ranked in the requested order, please.
Out: 2, 1, 4, 3

P: Clc1ccc(Nc2ncnc3[nH]ccc23)cc1 [Compound 4]
Q: Clc1ccccc1Nc1ncnc2[nH]ccc12 [Compound 14]
R: Clc1ccc(Nc2ncnc3[nH]ccc23)cc1Cl [Compound 5]
In: Place the items in sequence of falling pIC50. Return the labels ranked in the requested order, please.
Out: R, P, Q
(R: 8.17, P: 7.07, Q: 6.33)

A: Brc1cccc(Nc2ncnc3[nH]ccc23)c1 [Compound 2]
B: Brc1ccc(Nc2ncnc3[nH]ccc23)cc1 [Compound 10]
C: Cc1ccccc1Nc1ncnc2[nH]ccc12 [Compound 15]
In: Please produce an ascending ranking of these compounds based on pIC50. Return the labels ranked in the requested order, please.
Out: C, B, A
(C: 5.91, B: 6.90, A: 8.42)

###

measuredOn: aurora A kinase (AURKA) (Homo sapiens, UniProt O14965)
Construct: purchased BPS Bioscience (assay run externally by the vendor)
assayInfo: ADP-Glo kinase assay, Aurora A
Format: biochemical
conditions: Log[nM] 3.5; Set1
measureName: Aurora A % Activity Set1 (%)

givenSmiles: c1ccc(Cc2ccc(Nc3ncnc4[nH]ccc34)cc2)cc1
measuredOn: aurora A kinase (AURKA) (Homo sapiens, UniProt O14965)
Aurora A % Activity Set1 (%): 51

a: Clc1cccc(Nc2ncnc3[nH]ccc23)c1
b: COc1ccc(Nc2ncnc3[nH]ccc23)cc1
c: Brc1ccc(Nc2ncnc3[nH]ccc23)cc1
In: Please produce an ascending ranking of these compounds based on Aurora A % Activity Set1. Return the labels ranked in the requested order, please.
Out: a, c, b
(a: 42%, c: 60%, b: 86%)

I: Fc1cc(Nc2ncnc3[nH]ccc23)ccc1Cl
II: Brc1cccc(Nc2ncnc3[nH]ccc23)c1
In: Which record shows the lower Aurora A % Activity Set1: the first, I , or the second, II ? Your answer should be the label of the entry you select.
Out: II
(II: 35%, I: 53%)

P: FC(F)(F)c1cccc(Nc2ncnc3[nH]ccc23)c1
Q: Clc1ccc(Nc2ncnc3[nH]ccc23)cc1Br
In: When their Aurora A % Activity Set1 values are compared, which is larger, P or Q ? Your answer should be the label of the entry you select.
Out: P
(P: 73%, Q: 40%)

###

measuredOn: aurora A kinase (AURKA) (Homo sapiens, UniProt O14965)
Construct: purchased BPS Bioscience (assay run externally by the vendor)
Sequence (O14965 1-403): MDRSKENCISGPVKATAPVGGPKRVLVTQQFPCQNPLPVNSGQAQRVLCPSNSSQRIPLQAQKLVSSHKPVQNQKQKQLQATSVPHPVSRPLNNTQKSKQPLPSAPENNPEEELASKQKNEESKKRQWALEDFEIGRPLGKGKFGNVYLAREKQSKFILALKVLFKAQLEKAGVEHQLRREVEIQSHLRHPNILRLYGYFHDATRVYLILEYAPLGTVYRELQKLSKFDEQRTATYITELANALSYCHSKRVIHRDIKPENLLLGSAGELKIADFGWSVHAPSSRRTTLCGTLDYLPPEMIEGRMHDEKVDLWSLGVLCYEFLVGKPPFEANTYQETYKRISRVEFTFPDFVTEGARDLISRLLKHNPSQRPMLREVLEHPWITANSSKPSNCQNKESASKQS
assayInfo: ADP-Glo kinase assay, Aurora A
Assay type: biochemical
conditions: Log[nM] 5.0; Set2
measureName: Aurora A % Activity Set2 (%)

Solved cases below.
givenSmiles: Brc1ccc(Nc2ncnc3[nH]ccc23)cc1
Aurora A % Activity Set2 [%]: 10
//
givenSmiles: Clc1cccc(Nc2ncnc3[nH]ccc23)c1
Aurora A % Activity Set2 [%]: 4
//
givenSmiles: Clc1ccc(Nc2ncnc3[nH]ccc23)cc1Cl
Aurora A % Activity Set2 [%]: 12
//
givenSmiles: Fc1cc(Nc2ncnc3[nH]ccc23)ccc1Cl
Aurora A % Activity Set2 [%]: 5

a: Clc1ccccc1Nc1ncnc2[nH]ccc12
b: c1ccc(Oc2ccc(Nc3ncnc4[nH]ccc34)cc2)cc1
c: COc1ccc(Nc2ncnc3[nH]ccc23)cc1
d: Cc1cccc(Nc2ncnc3[nH]ccc23)c1
In: Please produce an ascending ranking of these compounds based on Aurora A % Activity Set2. Return the labels ranked in the requested order, please.
Out: d, c, a, b

###

measuredOn: EGFR (Homo sapiens)
assayInfo: ADP-Glo kinase assay, EGFR
Format: biochemical
Design: purchased BPS Bioscience (assay run externally by the vendor)
conditions: Log[nM] 3.0; Set2
measureName: EGFR % Activity Set2 (%)

Solved cases below.
givenSmiles: c1ccc(Oc2ccc(Nc3ncnc4[nH]ccc34)cc2)cc1
EGFR % Activity Set2 [%]: 10
//
givenSmiles: Nc1nc(Nc2cccc(Br)c2)c2cc[nH]c2n1
EGFR % Activity Set2 [%]: 23

P: c1ccc(Nc2ncnc3[nH]ccc23)cc1
Q: FC(F)(F)c1cccc(Nc2ncnc3[nH]ccc23)c1
R: COc1ccc(Nc2ncnc3[nH]ccc23)cc1
In: Place the items in sequence of falling EGFR % Activity Set2. Return the labels ranked in the requested order, please.
Out: R, P, Q
(R: 79%, P: 22%, Q: 8%)

###

measuredOn: aurora A kinase (AURKA) (Homo sapiens, UniProt O14965)
Construct: purchased BPS Bioscience (assay run externally by the vendor)
assayInfo: ADP-Glo kinase assay, Aurora A
Format: biochemical
conditions: Log[nM] 2.0; Set3
measureName: Aurora A % Activity Set3 (%)

givenSmiles: Cc1cccc(Nc2ncnc3[nH]ccc23)c1
displayUnit: %
endpointValue: 105
//
givenSmiles: c1ccc(Cc2ccc(Nc3ncnc4[nH]ccc34)cc2)cc1
displayUnit: %
endpointValue: 100
//
givenSmiles: Clc1ccc(Nc2ncnc3[nH]ccc23)cc1Cl
displayUnit: %
endpointValue: 105
//
givenSmiles: c1ccc(Nc2ncnc3[nH]ccc23)cc1
displayUnit: %
endpointValue: 100
//
givenSmiles: Clc1ccc(Nc2ncnc3[nH]ccc23)cc1
displayUnit: %
endpointValue: 104
//
givenSmiles: Cc1ccccc1Nc1ncnc2[nH]ccc12
displayUnit: %
endpointValue: 109
//
givenSmiles: COc1ccc(Nc2ncnc3[nH]ccc23)cc1
displayUnit: %
endpointValue: 96
//
givenSmiles: Cc1ccc(Nc2ncnc3[nH]ccc23)cc1
displayUnit: %
endpointValue: 114
//
givenSmiles: Nc1nc(Nc2cccc(Br)c2)c2cc[nH]c2n1
displayUnit: %
endpointValue: 109
//
givenSmiles: FC(F)(F)c1cccc(Nc2ncnc3[nH]ccc23)c1
displayUnit: %
endpointValue: 113
//
givenSmiles: Brc1ccc(Nc2ncnc3[nH]ccc23)cc1
displayUnit: %
endpointValue: 101

###

measuredOn: aurora A kinase (AURKA) (Homo sapiens)
Construct: purchased BPS Bioscience (assay run externally by the vendor)
Sequence (O14965 1-403): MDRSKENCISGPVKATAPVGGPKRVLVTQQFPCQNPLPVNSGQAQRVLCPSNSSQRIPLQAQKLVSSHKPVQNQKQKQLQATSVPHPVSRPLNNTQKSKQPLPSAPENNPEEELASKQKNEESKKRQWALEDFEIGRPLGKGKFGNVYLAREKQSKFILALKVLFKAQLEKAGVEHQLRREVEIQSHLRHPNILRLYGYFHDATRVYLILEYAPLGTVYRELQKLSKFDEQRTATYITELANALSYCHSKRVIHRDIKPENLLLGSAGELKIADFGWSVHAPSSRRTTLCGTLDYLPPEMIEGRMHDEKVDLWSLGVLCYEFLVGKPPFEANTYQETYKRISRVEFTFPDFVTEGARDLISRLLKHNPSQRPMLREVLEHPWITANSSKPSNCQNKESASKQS
assayInfo: ADP-Glo kinase assay, Aurora A
Assay type: biochemical
conditions: Log[nM] 3.5; Set3
measureName: Aurora A % Activity Set3 (%)

Solved cases below.
compound: Cc1ccccc1Nc1ncnc2[nH]ccc12 [Compound 15]
measuredOn: aurora A kinase (AURKA) (Homo sapiens)
measureName: Aurora A % Activity Set3
endpointValue: 70
--
compound: Clc1ccc(Nc2ncnc3[nH]ccc23)cc1Cl [Compound 5]
measuredOn: aurora A kinase (AURKA) (Homo sapiens)
measureName: Aurora A % Activity Set3
endpointValue: 58
--
compound: Clc1ccc(Nc2ncnc3[nH]ccc23)cc1Br [Compound 7]
measuredOn: aurora A kinase (AURKA) (Homo sapiens)
measureName: Aurora A % Activity Set3
endpointValue: 37
--
compound: Clc1cccc(Nc2ncnc3[nH]ccc23)c1 [Compound 11]
measuredOn: aurora A kinase (AURKA) (Homo sapiens)
measureName: Aurora A % Activity Set3
endpointValue: 49

P: c1ccc(Oc2ccc(Nc3ncnc4[nH]ccc34)cc2)cc1 [Compound 17]
Q: Brc1cccc(Nc2ncnc3[nH]ccc23)c1 [Compound 2]
In: Which record shows the lower Aurora A % Activity Set3: the first, P , or the second, Q ? Your answer should be the label of the entry you select.
Out: Q
(Q: 34%, P: 63%)
